B1: ZNF8 (parent)
chain: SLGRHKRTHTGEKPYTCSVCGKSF

# Variants of: B1
# measurement description: protein stability index of a GFP-peptide fusion (GPS, HEK-293T) (PSI 1-6); higher = more stable;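 further: lentivirally expressed fusions sorted by FACS into six bins by GFP to DsRed ratio, PSI derived from sequencing read proportions per bin multiplied by bin number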
# applied conditions: c terminus: a fixed tail appended
# Lookup of reported protein stability index keyed by entry
Answer with the value's number alone.

Known protein stability index results, listed for orientation:
E12D ... 2.64
P14Y ... 3
P14D ... 3.11
K13I ... 2.65
S1N ... 2.63

Request: State its protein stability index for this variant: `S23Y`
Response: 2.79

Request: For the variant `T8M` , give its reported protein stability index.
Response: 1.9

Request: Check the records and state protein stability index for `C20M`
Response: 3.36

Request: Identify protein stability index associated with the variant `Y15Q`
Response: 2.33

Request: Let me know recorded protein stability index for `Y15K` , thanks.
Response: 2.72

Request: Identify the reported protein stability index for the following entry. `G11I`
Response: 2.07

Request: Tell me protein stability index reported for `S1L`
Response: 1.73

Request: Recall and state the measured protein stability index for `S23P` .
Response: 2.39

Request: Supply recorded protein stability index for `H9Q` here.
Response: 3.98

Request: // fetch protein stability index given entry `P14E`
Response: 2.8

Request: Give the measured protein stability index for `S18D`
Response: 2.76
